Task for the reader: assign each of the following compounds its reported z-score.
experimental_target: Metabotropic glutamate receptor 8 (Rattus norvegicus) (UniProt P70579)
Sequence (P70579 whole entry, looked up): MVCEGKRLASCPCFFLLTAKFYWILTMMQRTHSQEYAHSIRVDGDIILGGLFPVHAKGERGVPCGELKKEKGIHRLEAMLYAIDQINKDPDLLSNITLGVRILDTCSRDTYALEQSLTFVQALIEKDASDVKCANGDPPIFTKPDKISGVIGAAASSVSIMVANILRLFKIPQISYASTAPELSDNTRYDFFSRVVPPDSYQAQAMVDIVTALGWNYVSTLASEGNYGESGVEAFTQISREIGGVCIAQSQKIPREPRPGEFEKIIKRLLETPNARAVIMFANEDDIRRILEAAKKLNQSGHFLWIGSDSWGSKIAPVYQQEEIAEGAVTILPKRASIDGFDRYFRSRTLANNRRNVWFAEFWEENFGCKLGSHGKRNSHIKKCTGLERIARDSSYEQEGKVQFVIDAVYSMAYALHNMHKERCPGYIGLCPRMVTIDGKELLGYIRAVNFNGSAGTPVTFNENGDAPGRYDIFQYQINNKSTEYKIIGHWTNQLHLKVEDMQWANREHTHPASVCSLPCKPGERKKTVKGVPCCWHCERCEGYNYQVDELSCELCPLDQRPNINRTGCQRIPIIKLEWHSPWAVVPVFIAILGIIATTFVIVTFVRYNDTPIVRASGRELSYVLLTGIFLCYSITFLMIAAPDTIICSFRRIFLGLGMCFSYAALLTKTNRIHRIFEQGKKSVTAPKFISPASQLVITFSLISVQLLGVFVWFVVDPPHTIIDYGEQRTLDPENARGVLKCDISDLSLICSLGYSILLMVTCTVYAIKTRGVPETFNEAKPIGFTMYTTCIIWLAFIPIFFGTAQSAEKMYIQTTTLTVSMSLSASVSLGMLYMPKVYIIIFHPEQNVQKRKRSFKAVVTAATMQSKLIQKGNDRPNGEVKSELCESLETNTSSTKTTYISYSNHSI
protocol_description: mGluR8 Gi/Go-coupled signaling modulation – cell-based, rat, thallium flux, HTS, primary screen (AID 488969)
condition_set: HEK293 rat mGluR8, GIRK (G protein-gated inwardly rectifying potassium channel) thallium flux, FluoZin2; at 10 µM; stronger effect = higher value; submaximal glutamate (EC20) added with thallium
Over roughly 110,000 compounds, “z-score” has its median near -0.1; the highest 2% begin near 2. Shown is part of a subset that was picked to be rich in the highest values. The source made the active and inactive calls.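 Rule for the calls: active = z-score in the third read window above 3 or below -3; inactive = the rest.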

Take a look at these entries with their results.
{"columns": ["compound", "experimental_target", "result"],
 "data": [
  ["O=C(CSc1ncn(-c2ccccc2)n1)NCc1ccccc1", "Metabotropic glutamate receptor 8 (Rattus norvegicus) (UniProt P70579)", -0.242],
  ["CC1=CC(C)(C)Nc2ccc(OC(=O)C(Cc3ccccc3)N3C(=O)C4CCCCC4C3=O)cc21 (centres undefined)", "Metabotropic glutamate receptor 8 (Rattus norvegicus) (UniProt P70579)", 2.63],
  ["O=C(Nc1ccccc1)/C(=C\\c1ccc2c(c1)OCO2)NC(=O)c1ccco1", "Metabotropic glutamate receptor 8 (Rattus norvegicus) (UniProt P70579)", -0.0407],
  ["CC1=CC(C)(C)Nc2ccc(OC(=O)CN3C(=O)C4CCCCC4C3=O)cc21 (centres undefined)", "Metabotropic glutamate receptor 8 (Rattus norvegicus) (UniProt P70579)", 1.08],
  ["COc1cc(OC)cc(C(=O)Nc2ccc(-c3nc4ccccc4o3)cc2)c1", "Metabotropic glutamate receptor 8 (Rattus norvegicus) (UniProt P70579)", -0.273],
  ["CCCCCN1C2=NCCN2c2ccccc21", "Metabotropic glutamate receptor 8 (Rattus norvegicus) (UniProt P70579)", 0.394],
  ["Cc1cccc(-c2cc3nc4c(c(N5CCC6(CC5)OCCO6)n3n2)CCCC4)c1", "Metabotropic glutamate receptor 8 (Rattus norvegicus) (UniProt P70579)", 0.391],
  ["OC(CN1C2=NCCN2c2ccccc21)c1ccc(Br)cc1 (centres undefined)", "Metabotropic glutamate receptor 8 (Rattus norvegicus) (UniProt P70579)", 0.254]
]}

Look at each compound and report its z-score.
1. Cc1ccc(C)c(C(=O)CN2C3=NCCCN3c3ccccc32)c1
2. COc1cc(OC)cc(C(=O)NCc2nc(-c3ccccc3)no2)c1
3. CCCCN1C2=NCCCN2c2ccccc21
4. CC(C)(NC(=O)N1CCOCC1)c1cccc(C(C)(C)NC(=O)N2CCOCC2)c1
5. CN(C)/C=C1/N=C(c2ccccc2)OC1=O
6. CCOC(=O)c1cc(NC(=O)COc2ccc([N+](=O)[O-])cc2)cc(C(=O)OCC)c1
7. CCN(CC)C(=O)COc1ccc2oc(C)c(C(=O)OC)c2c1
8. C/C=C/c1ccc(OCCCNC2CCCC2)c(OC)c1

Resp:
0.0716
-0.942
-0.957
-0.126
-0.23
-0.0752
3.23 (active)
1.24

// for each compound in input: emit z-score
1. S=C(Nc1ccc(Cl)cc1)c1sc(N2CCCCC2)nc1N1CCOCC1
2. COc1ccc(-c2nnn(CC(=O)N3CCN(c4ccccc4OC)CC3)n2)cc1
3. COc1ccc(S(=O)(=O)n2nc(-c3ccc(Cl)cc3)cc2N)cc1OC

Resp:
1: -0.435; 2: -0.289; 3: -0.0966
